Please go through the items and note down their Nitrite NAT enhanced sample prep. (ppm).
Test: Nitrite content (ion chromatography; LC-FLD with DAN derivatisation; Griess test) in drug substance, intermediates, reagents, solvents, filters, excipients
Assay type: physicochemical
Settings: ribociclib succinate drug substance batches at release
Answer with a number only, understood to be in ppm.

Task item: Which Nitrite NAT enhanced sample prep. (ppm) value belongs to CN(C)C(=O)c1cc2cnc(Nc3ccc(N4CCNCC4)cn3)nc2n1C1CCCC1.O=C(O)CCC(=O)O [Batch B695104] ?
Reply: 0.5

Task item: Returns the measured Nitrite NAT enhanced sample prep. (ppm) for the input compound. Input: CN(C)C(=O)c1cc2cnc(Nc3ccc(N4CCNCC4)cn3)nc2n1C1CCCC1.O=C(O)CCC(=O)O [Batch B710665]
Reply: 1.6

Task item: Bench note: what Nitrite NAT enhanced sample prep. (ppm) did CN(C)C(=O)c1cc2cnc(Nc3ccc(N4CCNCC4)cn3)nc2n1C1CCCC1.O=C(O)CCC(=O)O [Batch B696590] show?
Reply: 0.4

Task item: Any idea what Nitrite NAT enhanced sample prep. (ppm) was measured for CN(C)C(=O)c1cc2cnc(Nc3ccc(N4CCNCC4)cn3)nc2n1C1CCCC1.O=C(O)CCC(=O)O [Batch B709941] ?
Reply: 0.1

Task item: Look up Nitrite NAT enhanced sample prep. (ppm) for this compound: CN(C)C(=O)c1cc2cnc(Nc3ccc(N4CCNCC4)cn3)nc2n1C1CCCC1.O=C(O)CCC(=O)O [Batch B710668]
Reply: 0.1

Task item: State the recorded Nitrite NAT enhanced sample prep. (ppm) for this entry: CN(C)C(=O)c1cc2cnc(Nc3ccc(N4CCNCC4)cn3)nc2n1C1CCCC1.O=C(O)CCC(=O)O [Batch B696588]
Reply: 0.1

====

I'd appreciate it if you could supply Nitrite NAT enhanced sample prep. (ppm) values for the items below.
Assay: Nitrite content (ion chromatography; LC-FLD with DAN derivatisation; Griess test) in drug substance, intermediates, reagents, solvents, filters, excipients
Type: physicochemical
Settings: ribociclib succinate drug substance batches at release

Task item: Requested read-out: Nitrite NAT enhanced sample prep. (ppm). Entry: CN(C)C(=O)c1cc2cnc(Nc3ccc(N4CCNCC4)cn3)nc2n1C1CCCC1.O=C(O)CCC(=O)O [Batch B709938]
Reply: <0.1 ppm

Task item: What does the data say about its Nitrite NAT enhanced sample prep. (ppm)? Entry: CN(C)C(=O)c1cc2cnc(Nc3ccc(N4CCNCC4)cn3)nc2n1C1CCCC1.O=C(O)CCC(=O)O [Batch B698295]
Reply: 0.4 ppm

Task item: Tell me the measured Nitrite NAT enhanced sample prep. (ppm) of CN(C)C(=O)c1cc2cnc(Nc3ccc(N4CCNCC4)cn3)nc2n1C1CCCC1.O=C(O)CCC(=O)O [Batch B698293] , please.
Reply: 0.4 ppm
